Below: compounds with log10(Ki) recorded for rat mGlu2 receptor (Rattus norvegicus, UniProt P31421) in separate published works.
Recorded Ki (log10, nM)

Example compounds with recorded log10(Ki):
chemical_smiles=N#Cc1cccc(C2=Nc3cc(Cl)c(-c4ccccc4)cc3NC(=O)C2)c1 reported=2.08
chemical_smiles=N#Cc1cccc(C2=Nc3ccc(I)cc3NC(=O)C2)c1 reported=1.23
chemical_smiles=CS(=O)(=O)c1cccc(-c2cc(-c3nc(-c4ccc(C(F)(F)F)cc4)cc(C(F)(F)F)n3)ccn2)c1 reported=0.48
chemical_smiles=CCOc1cc2c(cc1C(F)(F)F)NC(=O)CC(c1cccc(-c3cccc(S(=O)(=O)NC(C)(C)C)c3)c1)=N2 reported=0.95
chemical_smiles=NS(=O)(=O)c1ccc(-c2noc(-c3cnn4c(C(F)(F)F)cc(-c5ccc(C(F)(F)F)cc5)nc34)n2)cc1 reported=0.75

Report log10(Ki) for each item below.
1. FC(F)(F)c1ccc(-c2cc(-c3cccc(-c4cccnc4)c3)nc(C3CC3)c2)cc1
2. CCOc1cc2c(cc1C(F)(F)F)NC(=O)CC(c1cccc(-c3ccc(S(N)(=O)=O)cc3)c1)=N2
3. CC(C)CN(C)c1cc2c(cc1C(F)(F)F)NC(=O)CC(c1cccc(-c3ccc(S(N)(=O)=O)cc3)c1)=N2

1. 1.46
2. 0.48
3. 1.23

---

Below: molecules with log10 of Ki recorded for UniProt P31421 in separate published works.
Recorded Ki (log10, nM)

chemical_smiles=CSc1cccc(-c2cccc(-c3cc(-c4ccc(C(F)(F)F)cc4)cc(C)n3)n2)c1 reported=1.59
chemical_smiles=Cc1cc(-c2ccc(C(F)(F)F)cc2)cc(-c2cccc(-c3cccc(S(=O)(=O)O)c3)n2)n1 reported=-0.15
chemical_smiles=Nc1ccc(-c2cc(-c3cc(C(F)(F)F)cc(-c4ccc(C(F)(F)F)cc4)n3)ccn2)cn1 reported=1.00
chemical_smiles=CC(C)(C)NS(=O)(=O)c1cccc(-c2cn(-c3cc(C(F)(F)F)cc(-c4ccc(C(F)(F)F)cc4)n3)cn2)c1 reported=0.48
chemical_smiles=NS(=O)(=O)c1ccc(-c2cc(-c3nc(-c4ccc(C(F)(F)F)nc4)cc(C(F)(F)F)n3)ccn2)s1 reported=0.82
chemical_smiles=Cc1nc(NC(=O)c2cnn3c(C(F)(F)F)cc(-c4ccc(C(F)(F)F)cc4)nc23)sc1S(N)(=O)=O reported=0.40
chemical_smiles=NS(=O)(=O)c1ccc(-c2nc(-c3ncn4c(C(F)(F)F)cc(-c5ccc(C(F)(F)F)cc5)nc34)no2)cc1 reported=1.01
chemical_smiles=Nc1ccc(-c2cn(-c3cc(C(F)(F)F)cc(-c4ccc(Cl)cc4)n3)cn2)cn1 reported=0.95
chemical_smiles=NS(=O)(=O)c1cccc(-c2cn(-c3nc(-c4ccc(C(F)(F)F)nc4)cc(C(F)F)n3)cn2)c1 reported=1.18
chemical_smiles=Cc1cc(-c2ccc(C(F)(F)F)cc2)nc(-c2ccnc(-c3ccc(S(=O)(=O)NC(C)(C)C)s3)c2)c1 reported=1.20

Report log10 of Ki for each item below.
1. NS(=O)(=O)c1ccc(-c2noc(-c3cnn4c(C5CC5)cc(-c5ccc(Cl)cc5)nc34)n2)s1
2. CS(=O)(=O)Nc1cccc(-c2cccc(-c3nc(-c4ccc(C(F)(F)F)cc4)cc(C(F)(F)F)n3)c2)c1
3. O=C(Nc1cc(S(=O)(=O)N(CCO)CCO)sc1Cl)c1cnn2c(C(F)(F)F)cc(-c3ccc(C(F)(F)F)cc3)nc12
4. N#Cc1ncn2c(C(F)(F)F)cc(-c3ccc(Cl)c(Cl)c3)nc12
5. O=C1CC(c2cccc(-c3nc(CO)cs3)c2)=Nc2ccc(-c3ccccc3F)cc2N1

1.21
1.11
1.43
1.63
1.20

---

Below: compounds with Ki recorded for rat mGlu2 receptor (Rattus norvegicus, UniProt P31421) in separate published works.
One number for each entry, in nM.

chemical_smiles=Cc1cn(-c2cccc(C3=Nc4ccc(-c5ccc(F)cc5)cc4NC(=O)C3)c2)cn1 reported=16
chemical_smiles=Cc1cc(-c2ccc(C(F)(F)F)cc2)cc(-n2ccnc2)n1 reported=96
chemical_smiles=FC(F)(F)c1ccc(-c2cc(C(F)(F)F)cc(-c3cccc(-c4cccnc4)c3)n2)cc1 reported=58.3
chemical_smiles=Cc1cc(-c2ccc(C(F)(F)F)cc2)cc(-c2ccnc(-c3cccc(NS(C)(=O)=O)c3)c2)n1 reported=4

Report Ki for each item below.
1. O=C(Nc1cccc(S(=O)(=O)Nc2ccccc2)c1)c1cnn2c(C(F)F)cc(-c3ccc(C(F)(F)F)cc3)nc12
2. NS(=O)(=O)c1ccc(-c2noc(-c3nc(-c4ccc(C(F)(F)F)cc4)cc(C(F)F)n3)n2)cc1
3. Nc1ncc(-c2cccc(-c3nc(-c4ccc(C(F)(F)F)c(OCC(F)(F)F)c4)cc(C(F)(F)F)n3)c2)cn1
4. COc1cc2c(cc1-c1ccccc1F)NC(=O)CC(c1cccc(-n3ccnc3C)c1)=N2
5. NS(=O)(=O)c1cccc(-c2cc(-c3nc(-c4ccc(C(F)(F)F)nc4)cc(C(F)(F)F)n3)ccn2)c1
6. NS(=O)(=O)Nc1cccc(-c2cccc(-c3nc(-c4ccc(C(F)(F)F)cc4)cc(C(F)(F)F)n3)c2)c1
7. COc1cc2c(cc1-c1ccccc1F)NC(=O)CC(c1ccc(C#N)s1)=N2
8. Cc1cc(-c2ccc(C(F)(F)F)cc2)cc(-c2cccc(-c3cccc(S(C)(=O)=O)c3)c2)n1

67
31
28
138
5.3
7
168
3

---

Below: compounds with pKi recorded for UniProtKB P31421 in separate published works.
Answers are plain numbers, as −log10 of the molar value.

compound=Cc1cc(-c2ccc(C(F)(F)F)nc2)cc(-c2cccc(-c3cccc(S(=O)(=O)NC(C)(C)C)c3)n2)n1 reported=7.59
compound=FC(F)(F)c1ccc(-c2cc(C(F)(F)F)n3ncc(-c4nc(-c5cccnc5)no4)c3n2)cc1 reported=7.32
compound=COCCOc1cc2c(cc1C#Cc1ccccc1)NC(=O)CC(c1cccc(-n3ccnc3)c1)=N2 reported=7.92
compound="N#Cc1cccc(C2=Nc3cc(OCC4COC(=O)O4)c(C#Cc4ccccc4)cc3NC(=O)C2)c1 (racemic)" reported=7.46
compound=CN(C)c1cc2c(cc1C(F)(F)F)NC(=O)CC(c1cccc(-c3cccc(S(N)(=O)=O)c3)c1)=N2 reported=8.92

Report pKi for each item below.
1. Cc1cc(-c2cccc(C3=Nc4cc(O)c(-c5ccccc5F)cc4NC(=O)C3)c2)on1
2. Nc1ccc(-c2cn(-c3cc(-c4ccc(C(F)(F)F)cc4)cc(C4CC4)n3)cn2)cn1
3. O=C1CC(c2cccc(-n3ccnn3)c2)=Nc2ccc(-c3cccc(F)c3F)cc2N1
4. Cc1cc(-c2ccc(C(F)(F)F)cc2)nc(-c2cccc(-c3cncc(S(N)(=O)=O)c3)c2)c1
5. Cc1cc(-c2cccc(C3=Nc4ccc(-c5ccc(F)cc5)cc4NC(=O)C3)c2)on1

1: 7.82; 2: 7.22; 3: 7.89; 4: 7.06; 5: 6.54

---

Below: compounds with Ki recorded for rat mGlu2 receptor (Rattus norvegicus) in separate published works.
Answers are plain numbers, in nM.

chemical_smiles=Cc1cc2c(cc1C(F)(F)F)NC(=O)CC(c1cccc(-c3cccc(S(N)(=O)=O)c3)c1)=N2 target_system="rat mGlu2 receptor (Rattus norvegicus)" reported_metric=Ki reported=0.9
chemical_smiles=Nc1ccc(-c2ncn(-c3cc(C(F)(F)F)cc(-c4ccc(C(F)(F)F)cc4)n3)n2)cn1 target_system="rat mGlu2 receptor (Rattus norvegicus)" reported_metric=Ki reported=71
chemical_smiles=Cc1cc(-c2ccc(C(F)(F)F)cc2)cc(-c2cccc(-c3cccnc3)c2)n1 target_system="rat mGlu2 receptor (Rattus norvegicus)" reported_metric=Ki reported=13
chemical_smiles=NS(=O)(=O)c1cccc(-c2cccc(-c3nc(-c4ccc(Cl)s4)cc(C(F)(F)F)n3)c2)c1 target_system="rat mGlu2 receptor (Rattus norvegicus)" reported_metric=Ki reported=14.3
chemical_smiles=Cc1cc(-c2ccc(C(F)(F)F)cc2)cc(-c2ccnc(-c3cccc(NS(C)(=O)=O)c3)n2)n1 target_system="rat mGlu2 receptor (Rattus norvegicus)" reported_metric=Ki reported=4

Report Ki for each item below.
1. NS(=O)(=O)c1cccc(-c2nc(-c3nc(-c4ccc(Cl)cc4)cc(C(F)(F)F)n3)no2)c1
2. CSc1nccn1-c1cccc(C2=Nc3cc(O)c(-c4ccccc4F)cc3NC(=O)C2)c1
3. Cc1cc(-c2ccc(C(F)(F)F)cc2)cc(-c2ccnc(-c3cccc([N+](=O)[O-])c3)c2)n1
4. NS(=O)(=O)c1cccc(-c2nc(-c3nc(-c4ccc(C(F)(F)F)cc4)cc(C(F)(F)F)n3)no2)c1
5. C=CCn1c(-c2c(Cl)cccc2Cl)nc(-c2ccncc2)c1-c1ccc(C)cc1
6. O=C1CC(c2cccc(-n3ccnc3)c2)=Nc2cc(CO)c(C#Cc3ccccc3)cc2N1
7. O=C(Nc1cccc(S(=O)(=O)NCc2ccncc2)c1)c1cnn2c(C(F)F)cc(-c3ccc(C(F)(F)F)cc3)nc12

[28, 21, 38, 25, 34, 18, 15]

Report Ki for each item below.
1. Cc1cc(-c2ccc(C(F)(F)F)cc2)cc(-c2ccnc(-c3cccc([N+](=O)[O-])c3)n2)n1
2. Cc1cc(-c2ccc(C(F)(F)F)cc2)nc(-c2cccc(-c3cccc(S(N)(=O)=O)c3)c2)c1

9
4

Report Ki for each item below.
1. FC(F)(F)c1ccc(-c2cc(C(F)(F)F)nc(-n3cnc(-c4cccnc4)c3)n2)cc1
2. Nc1ccc(-c2cn(-c3nc(-c4ccc(C(F)(F)F)nc4)cc(C(F)(F)F)n3)cn2)cn1

1. 47
2. 33
